TARGET OF ASSAY: STING AQ: His-TVMV-S-hSTING(155-341)-G230A-R293Q (Homo sapiens, UniProt Q86WV6, G230A/H232R/R293Q)
Construct: His-TVMV-S-hSTING(155-341)-G230A-R293Q
Sequence (Q86WV6 with tags, fused parts or gaps G230A/H232R/R293Q): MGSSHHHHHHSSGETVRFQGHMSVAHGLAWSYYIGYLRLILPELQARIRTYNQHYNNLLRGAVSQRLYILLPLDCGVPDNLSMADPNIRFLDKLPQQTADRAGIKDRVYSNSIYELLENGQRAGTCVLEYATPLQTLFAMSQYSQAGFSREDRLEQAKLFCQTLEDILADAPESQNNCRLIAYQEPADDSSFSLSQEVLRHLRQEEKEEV
TEST SUMMARY: STING HTRF binding assay (time resolved FRET competition), STING AQ
COND: 20 nM His-tagged STING cytoplasmic domain, 40 nM fluorescein-labeled cGAMP analog probe, one hour; read-out: HTRF Binding Assays IC50 STING AQ
pIC50: −log10 of the molar value.
pIC50: recorded values
EXPERIMENTAL READOUT: pIC50

NC(=O)c1cccc2c1nnn2[C@@H]1C[C@@H]2COP(O)(=S)O[C@H]3[C@@H](F)[C@H](n4cnc5c(N)ncnc54)O[C@@H]3COP(O)(=S)OC[C@H]21 (single isomer, unassigned) [Example 13-1]
4.07
Nc1ncnc2c1ncn2[C@@H]1C[C@@H]2COP(O)(=S)O[C@@H]3[C@H](O)[C@@H](COP(O)(=S)OC[C@H]21)O[C@H]3n1cnc2c(O)nc3nccn3c21 (single isomer, unassigned) [Example 15-3]
5.92

* * *

TARGET OF ASSAY: STING WT: His-TVMV-S-hSTING(155-341)-H232R (Homo sapiens, UniProt Q86WV6, H232R)
Construct: His-TVMV-S-hSTING(155-341)-H232R
Sequence (Q86WV6 with tags, fused parts or gaps H232R): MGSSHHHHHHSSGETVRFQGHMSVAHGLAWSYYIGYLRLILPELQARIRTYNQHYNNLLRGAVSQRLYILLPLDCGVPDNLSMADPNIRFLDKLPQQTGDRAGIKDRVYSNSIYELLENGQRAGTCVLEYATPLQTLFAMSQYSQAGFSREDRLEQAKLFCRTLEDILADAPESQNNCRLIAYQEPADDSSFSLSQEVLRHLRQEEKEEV
TEST SUMMARY: STING HTRF binding assay (time resolved FRET competition), STING WT
COND: 20 nM His-tagged STING cytoplasmic domain, 200 nM fluorescein-labeled cGAMP analog probe, one hour; read-out: HTRF Binding Assays IC50 STING WT
pIC50: −log10 of the molar value.
Returns true (1) if the recorded pIC50 is greater than or equal to 5, and false (0) otherwise.

Nc1ncnc2c1ncn2[C@@H]1C[C@@H]2COP(O)(=S)O[C@H]3[C@@H](F)[C@H](n4cnc5c(=O)[nH]c6nccn6c54)O[C@@H]3COP(O)(=S)OC[C@H]21 (single isomer, unassigned) [Example 9-4]
true (1)
NC(=O)c1cccc2c1nnn2[C@@H]1O[C@@H]2COP(O)(=S)OC[C@@H]3[C@@H](COP(O)(=S)O[C@H]2[C@H]1F)C[C@H]3n1cnc2c(N)ncnc21 (single isomer, unassigned) [Example 12-1]
false (0)
Nc1ncnc2c1ncn2[C@@H]1C[C@@H]2COP(O)(=S)O[C@@H]3[C@H](O)[C@@H](COP(O)(=S)OC[C@H]21)O[C@H]3n1cnc2c(O)nc3nccn3c21 (single isomer, unassigned) [Example 15-2]
false (0)
Nc1ncnc2c1ncn2[C@@H]1O[C@@H]2COP(O)(=S)OC[C@@H]3[C@@H](COP(O)(=S)O[C@H]2[C@H]1F)C[C@H]3n1cnc2c(=O)[nH]cnc21 (single isomer, unassigned) [Example 5-1]
true (1)
Nc1ncnc2c1ncn2[C@@H]1C[C@@H]2COP(=O)(O)O[C@H]3[C@@H](F)[C@H](n4cnc5c(N)ncnc54)O[C@@H]3COP(=O)(O)OC[C@H]21
true (1)

* * *

TARGET OF ASSAY: STING AQ: His-TVMV-S-hSTING(155-341)-G230A-R293Q (Homo sapiens, UniProt Q86WV6, G230A/H232R/R293Q)
Construct: His-TVMV-S-hSTING(155-341)-G230A-R293Q
TEST SUMMARY: STING HTRF binding assay (time resolved FRET competition), STING AQ
COND: 20 nM His-tagged STING cytoplasmic domain, 40 nM fluorescein-labeled cGAMP analog probe, one hour; read-out: HTRF Binding Assays IC50 STING AQ
EXPERIMENTAL READOUT: log10 of IC50 (log10 of the value in nM)

Nc1ncnc2c1ncn2[C@@H]1C[C@@H]2COP(O)(=S)O[C@@H]3[C@H](O)[C@@H](COP(O)(=S)OC[C@H]21)O[C@H]3n1cnc2c(N)ncnc21 (single isomer, unassigned) [Example 4-1]
3.45
Nc1ncnc2c1ncn2[C@@H]1C[C@@H]2COP(O)(=S)O[C@H]3C[C@H](n4ccc5c(Cl)ncnc54)O[C@@H]3COP(=O)(S)OC[C@H]21 (single isomer, unassigned) [Example 6-4]
4.17
Nc1ncnc2c1ncn2[C@@H]1C[C@@H]2COP(O)(=S)O[C@H]3[C@H](F)[C@H](n4cnc5c(N)ncnc54)O[C@@H]3COP(O)(=S)OC[C@H]21 (single isomer, unassigned) [Example 17-2]
3.28
Nc1ncnc2c1ncn2[C@@H]1C[C@@H]2COP(O)(=S)O[C@@H]3[C@H](O)[C@@H](COP(O)(=S)OC[C@H]21)O[C@H]3n1cnc2c(O)nc3nccn3c21 (single isomer, unassigned) [Example 15-1]
3.64
Nc1ncnc2c1ncn2[C@@H]1O[C@@H]2COP(O)(=S)OC[C@@H]3[C@@H](COP(O)(=S)O[C@H]2[C@H]1F)C[C@H]3n1cnc2c(O)nc3nccn3c21 (single isomer, unassigned) [Example 3-2]
2.66
O=c1[nH]c2nccn2c2c1ncn2[C@@H]1O[C@@H]2COP(=O)(S)OC[C@@H]3[C@@H](COP(=O)(S)O[C@@H]1[C@@H]2O)C[C@H]3n1cnc2c(O)ncnc21 (single isomer, unassigned) [Example 14-1]
3.65
Nc1ncnc2c1ncn2[C@@H]1O[C@@H]2COP(O)(=S)OC[C@@H]3[C@@H](COP(O)(=S)O[C@H]2[C@H]1F)C[C@H]3n1cnc2c(O)nc3nccn3c21 (single isomer, unassigned) [Example 3-1]
2.63
Nc1nc2c(ncn2[C@@H]2C[C@@H]3COP(O)(=S)O[C@H]4[C@@H](F)[C@H](n5cnc6c(N)ncnc65)O[C@@H]4COP(O)(=S)OC[C@H]32)c(=O)[nH]1 (single isomer, unassigned) [Example 18-2]
1.30
NC(=O)c1cccc2c1nnn2[C@@H]1O[C@@H]2COP(O)(=S)OC[C@@H]3[C@@H](COP(O)(=S)O[C@H]2[C@H]1F)C[C@H]3n1cnc2c(N)ncnc21 (single isomer, unassigned) [Example 12-2]
4.95
Nc1ncnc2c1ncn2[C@@H]1C[C@@H]2COP(O)(=S)O[C@@H]3[C@H](O)[C@@H](COP(O)(=S)OC[C@H]21)O[C@H]3n1cnc2c(O)nc3nccn3c21 (single isomer, unassigned) [Example 15-2]
3.26
Nc1ncnc2c1ncn2[C@@H]1C[C@@H]2COP(=O)(O)O[C@H]3[C@@H](F)[C@H](n4cnc5c(N)ncnc54)O[C@@H]3COP(=O)(O)OC[C@H]21 [Example 10]
1.60
Nc1ncnc2c1ncn2[C@@H]1O[C@@H]2COP(O)(=S)OC[C@@H]3[C@@H](COP(O)(=S)O[C@H]2[C@H]1F)C[C@H]3n1cnc2c(=O)[nH]cnc21 (single isomer, unassigned) [Example 5-2]
1.30
NC(=O)c1cccc2c1nnn2[C@@H]1O[C@@H]2COP(O)(=S)OC[C@@H]3[C@@H](COP(O)(=S)O[C@H]2[C@H]1F)C[C@H]3n1cnc2c(N)ncnc21 (single isomer, unassigned) [Example 12-1]
4.30
Nc1ncnc2c1ncn2[C@@H]1C[C@@H]2COP(O)(=S)O[C@@H]3[C@H](O)[C@@H](COP(O)(=S)OC[C@H]21)O[C@H]3n1cnc2c(O)nc3nccn3c21 (single isomer, unassigned) [Example 15-4]
2.67
Nc1nc2c(ncn2[C@@H]2C[C@@H]3COP(O)(=S)O[C@H]4[C@@H](F)[C@H](n5cnc6c(N)ncnc65)O[C@@H]4COP(O)(=S)OC[C@H]32)c(=O)[nH]1 (single isomer, unassigned) [Example 18-1]
0.30
O=c1[nH]c2nccn2c2c1ncn2[C@@H]1O[C@@H]2COP(=O)(S)OC[C@@H]3[C@@H](COP(=O)(S)O[C@@H]1[C@@H]2O)C[C@H]3n1cnc2c(O)ncnc21 (single isomer, unassigned) [Example 14-4]
2.96
Nc1ncnc2c1ncn2[C@@H]1C[C@@H]2COP(O)(=S)O[C@@H]3[C@H](O)[C@@H](COP(O)(=S)OC[C@H]21)O[C@H]3n1cnc2c(N)ncnc21 (single isomer, unassigned) [Example 4-2]
1.70
NC(=O)c1cccc2c1nnn2[C@@H]1C[C@@H]2COP(O)(=S)O[C@H]3[C@@H](F)[C@H](n4cnc5c(N)ncnc54)O[C@@H]3COP(O)(=S)OC[C@H]21 (single isomer, unassigned) [Example 13-2]
3.48
